- TGT: human CRTH2 (Homo sapiens, UniProt Q9Y5Y4, V204A)
- Sequence (Q9Y5Y4 whole entry V204A): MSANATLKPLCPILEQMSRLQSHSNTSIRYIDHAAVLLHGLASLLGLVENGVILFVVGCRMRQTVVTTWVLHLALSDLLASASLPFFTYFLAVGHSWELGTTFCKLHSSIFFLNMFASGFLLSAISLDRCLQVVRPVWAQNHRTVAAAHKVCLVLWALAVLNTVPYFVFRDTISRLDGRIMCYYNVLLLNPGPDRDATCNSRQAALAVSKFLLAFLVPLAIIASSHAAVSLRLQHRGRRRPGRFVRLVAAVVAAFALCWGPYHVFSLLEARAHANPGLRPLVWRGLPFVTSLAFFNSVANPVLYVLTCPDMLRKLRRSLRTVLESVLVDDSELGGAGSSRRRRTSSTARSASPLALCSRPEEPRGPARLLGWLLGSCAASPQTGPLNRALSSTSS
- ASSAY_OVERVIEW: Functional antagonist BRET assay on HEK293 cells stably expressing human CRTH2-Rluc and GFP2-β-arr2
- Format: cell-based
- Parameters: expressed in transfected cells
- REPORTED_CONDITIONS: BRET, antagonist incubated 15 minutes prior to agonist; read-out: Antag. IC50
pIC50: −log10 of the molar value.
Each record here notes measured pIC50.

Study these solved cases before continuing.
O=C(O)COc1ccc(F)cc1C(=O)c1cnn(-c2ccccc2)c1 :: 5.30 to 6.30
O=C(O)COc1ccc(Br)cc1C(=O)c1cnn(-c2cccc(Cl)c2)c1 :: > 6.30
O=C(O)COc1ccc(Br)cc1-c1coc(-c2ccc(Cl)cc2)n1 :: < 5.30
O=C(O)COc1ccc(-c2ccc(Cl)cc2)cc1C(=O)c1cnn(-c2ccccc2)c1 :: > 6.30
O=C(O)COc1ccc(Br)cc1C(=O)c1cnn(-c2c(Cl)cccc2Cl)c1 :: > 6.30

Sample O=C(O)COc1ccc(Br)cc1C(=O)c1cnn(-c2ccc(Cl)cc2)c1 ; pIC50 observed: > 6.30

Sample O=C(O)COc1ccc(Br)cc1C(=O)c1cnn(-c2ccc(Br)cc2)c1 ; pIC50 observed: > 6.30

Sample Cc1cccc(C)c1-n1cc(C(=O)c2cc(Br)ccc2OCC(=O)O)cn1 ; pIC50 observed: > 6.30

Sample O=C(O)COc1ccc(Br)cc1C(=O)c1cnn(-c2ccc(OC(F)(F)F)cc2)c1 ; pIC50 observed: > 6.30

Sample O=C(O)COc1ccc(Br)cc1-c1coc(Cc2ccc(F)cc2Cl)n1 ; pIC50 observed: > 6.30

Sample O=C(O)COc1ccc(-c2cc(F)cc(F)c2)cc1C(=O)c1cnn(-c2ccccc2)c1 ; pIC50 observed: 5.30 to 6.30

Sample N#Cc1ccccc1-n1cc(C(=O)c2cc(Br)ccc2OCC(=O)O)cn1 ; pIC50 observed: > 6.30

Sample O=C(c1cnn(-c2ccccc2)c1)c1cc(Br)ccc1OCc1nn[nH]n1 ; pIC50 observed: < 5.30
